The measured values listed here are drawn from ChEMBL document CHEMBL1201862.

System: NCI-H460
experimental-protocol: NCI tumour cell line growth inhibition, 48 h
Active and inactive are the calls of the source. No stated cut-off is given here; in the data, active = GI50 up to about 1.1 µM and inactive = higher.
Choose the fitting class; nothing outside active, inactive is accepted.

Please review the entries below; each comes with its answer.
| compound | study-system | cat |
| --- | --- | --- |
| NC(=S)N/N=C1/C(=O)N(c2ccc(Cl)cc2Cl)C(=O)C(=O)C1c1nc2ccccc2s1 (stereo not given) | NCI-H460 | inactive |
| O=C1/C(=C/c2ccc(OC(=O)c3ccc(Cl)cc3)cc2)CCC/C1=C\c1ccc(OC(=O)c2ccc(Cl)cc2)cc1 | NCI-H460 | inactive |
| CC/C(CC(=O)CCC(=O)Nc1ccc(C)c(C)c1)=N\NC(=O)c1cc2ccccc2cc1O | NCI-H460 | inactive |
| CCCCCNC(=O)CCCCCCCCCCCNC(=O)CCCCCCCCCCN1C=CC(=CC=C2C=CC(=O)C=C2)C=C1 | NCI-H460 | inactive |
| CN1CCN(C(=S)N(C(=O)c2ccc(Cl)cc2)C2CCCCC2)CC1 | NCI-H460 | inactive |
| O=C(Oc1ccccn1)c1cc2cc(CCl)ccc2oc1=O | NCI-H460 | inactive |
| CC(=O)OCC1OC(n2c(C)c(C(C)=O)c(-c3ccco3)c(C#N)c2=S)C(OC(C)=O)C(OC(C)=O)C1OC(C)=O (stereo not given) | NCI-H460 | inactive |
| COc1cc(CCc2ccc(N)cc2)cc(OC)c1OC | NCI-H460 | inactive |
| C/C(=N\Nc1nc2ccccc2o1)c1cc2ccccc2cn1 | NCI-H460 | active |
| O=C1Sc2cc3ccccc3cc2C(=O)Sc2cc3ccccc3cc21 | NCI-H460 | inactive |

Task: Returns: the outcome recorded for O=C(O)Cn1cnc2c(O)nc(Nc3ccccc3)nc21 in this assay.
Result: inactive

Task: Returns: the outcome recorded for COc1ccccc1NC(=O)CC(=O)N1N=C(c2ccccc2)C(/N=N/c2ccc(Cl)cc2)C1=O (stereo not given) in this assay.
Result: inactive

Task: Returns: the outcome recorded for CC1(CO)C(O)CCC2(C)C1C(O)CC1CC3CC12CCC3(O)CO (stereo not given) in this assay.
Result: inactive

Task: Returns: the outcome recorded for NNS(=O)(=O)c1cc(C(=O)O)cc(C(=O)O)c1 in this assay.
Result: inactive

Task: Returns: the outcome recorded for Nc1c(Br)cc(-c2cc(Br)c(N)c(Br)c2)cc1Br in this assay.
Result: inactive

Task: Returns: the outcome recorded for COc1ccc(OC)c2nc3c(C(=O)NCCN(C)C)cccc3nc12 in this assay.
Result: inactive

Task: Returns: the outcome recorded for COc1cccc(NC(=O)CC(=O)N2NC(C)C(/N=N/c3cccc(C(=O)O)c3)C2=O)c1 (stereo not given) in this assay.
Result: inactive

Task: Returns: the outcome recorded for CN1C(=O)C(C)(C)C2(SC(C)(C)C2(C)C)N(C)C1=S (stereo not given) in this assay.
Result: inactive

Task: Returns: the outcome recorded for CC(=O)OC(CC1(C)C(C)CCC23COC(=O)C2=CCCC31)c1ccoc1 (stereo not given) in this assay.
Result: inactive

Task: Returns: the outcome recorded for C[C@]1(O)CC(=O)c2c(c(-c3ccc4cc5c(c(O)c4c3O)C(=O)C[C@@](C)(O)C5)c3cccc(O)c3c2O)C1 in this assay.
Result: inactive
